These entries and their values trace back to ChEMBL document CHEMBL6092159.

- procedure-details: Solubility of the compound by HPLC based dissolution test
- Assay type: physicochemical
observation-type: solubility (mg/mL)

compound	observation-type	measured
CCCCC1OC(=O)c2ccccc21 (racemic) [RAC-3-N-BUTYLPHTHALIDE]	solubility	0.25
CCCCC1OC(=O)c2cc(NCc3cccc(CNC(C)=N)c3)ccc21 (configuration not stated)	solubility	30

---

- procedure-details: Stability in rat plasma assessed as half life
- Assay type: ADME, cell-free

compound	half-life / h
CCCCC1OC(=O)c2cc(NCc3cccc(CNC(C)=N)c3)ccc21 (stereo unspecified)	23

---

- procedure-details: MRT (0 to t) in Sprague-Dawley rat at 10 mg/kg, iv measured after 24 hrs by LC-MS/MS analysis
- Assay type: ADME, organism-based
- condition-context: in vivo
Catalogue of compounds with associated MRT last at 24 h
observation-type: MRT last at 24 h (h)

compound	observation-type	measured
CCCCC1OC(=O)c2cc(NCc3cccc(CNC(C)=N)c3)ccc21 (configuration not stated)	MRT last at 24 h	1.62
CC(=N)NCc1cccc(CN)c1 [1400W]	MRT last at 24 h	0.96

---

- procedure-details: Apparent volume of distribution in Sprague-Dawley rat at 10 mg/kg, iv measured after 24 hrs by LC-MS/MS analysis
- Type: ADME, organism-based
- condition-context: in vivo, read-out: Vz
Here, each record is paired with measured Vd data.

compound	endpoint-unit	Vd
CCCCC1OC(=O)c2cc(NCc3cccc(CNC(C)=N)c3)ccc21 (configuration not stated)	L/kg	32.4
CC(=N)NCc1cccc(CN)c1 [1400W]	L/kg	21.7

---

- procedure-details: Metabolic stability in rat liver microsomes assessed as half life
- Format: ADME, Microsome

molecule	half-life, h
CCCCC1OC(=O)c2cc(NCc3cccc(CNC(C)=N)c3)ccc21 (stereo unspecified)	2

---

Some compounds, each annotated with its measured pIC50.
- system: Nitric oxide synthase, inducible (Homo sapiens, UniProt P35228)
- Sequence (P35228 whole entry): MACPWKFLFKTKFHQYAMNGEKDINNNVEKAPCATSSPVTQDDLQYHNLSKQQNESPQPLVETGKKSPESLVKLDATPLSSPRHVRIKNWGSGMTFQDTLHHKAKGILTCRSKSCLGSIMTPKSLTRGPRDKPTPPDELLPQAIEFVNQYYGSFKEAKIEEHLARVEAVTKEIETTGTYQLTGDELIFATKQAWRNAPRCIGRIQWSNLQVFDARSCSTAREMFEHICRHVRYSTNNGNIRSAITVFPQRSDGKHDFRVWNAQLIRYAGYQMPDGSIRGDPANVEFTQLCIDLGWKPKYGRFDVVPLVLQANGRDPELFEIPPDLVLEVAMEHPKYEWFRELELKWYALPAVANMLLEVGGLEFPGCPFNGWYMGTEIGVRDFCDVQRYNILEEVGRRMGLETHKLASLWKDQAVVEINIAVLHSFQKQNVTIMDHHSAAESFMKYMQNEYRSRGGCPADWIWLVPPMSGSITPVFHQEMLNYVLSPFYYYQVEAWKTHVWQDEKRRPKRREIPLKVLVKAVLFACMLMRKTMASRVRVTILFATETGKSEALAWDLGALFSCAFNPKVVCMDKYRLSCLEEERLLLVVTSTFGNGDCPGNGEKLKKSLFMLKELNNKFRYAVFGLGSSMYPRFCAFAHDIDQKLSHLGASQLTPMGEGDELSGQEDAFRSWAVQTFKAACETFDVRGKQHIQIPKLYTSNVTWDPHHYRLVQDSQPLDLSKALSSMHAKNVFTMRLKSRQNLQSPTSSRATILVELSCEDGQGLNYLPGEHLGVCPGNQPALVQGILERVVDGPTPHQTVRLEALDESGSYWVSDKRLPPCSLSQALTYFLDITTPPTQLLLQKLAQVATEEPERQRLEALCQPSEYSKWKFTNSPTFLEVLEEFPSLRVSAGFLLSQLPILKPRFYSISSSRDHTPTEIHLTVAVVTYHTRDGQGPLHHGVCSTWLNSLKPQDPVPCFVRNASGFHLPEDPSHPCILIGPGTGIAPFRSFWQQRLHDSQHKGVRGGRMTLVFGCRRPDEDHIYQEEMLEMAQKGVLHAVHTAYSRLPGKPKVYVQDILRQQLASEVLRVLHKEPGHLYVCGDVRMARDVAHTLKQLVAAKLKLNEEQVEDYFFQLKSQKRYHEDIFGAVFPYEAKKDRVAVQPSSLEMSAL
- procedure-details: Inhibition of iNOS (unknown origin) assessed as nitric oxide production at 1 uM by hemoglobin capture assay
pIC50: −log10 of the molar value.
observation-type: pIC50

compound	observation-type	measured
CCCCC1OC(=O)c2cc(NC(=O)c3cccc(NC(C)=N)c3)ccc21 (centres undefined)	pIC50	6.32
CCCCC1OC(=O)c2cc(NCc3cccc(NC(C)=N)c3)ccc21 (centres undefined)	pIC50	6.56
CCCCC1OC(=O)c2cc(NCc3cccc(CNC(C)=N)c3)ccc21 (centres undefined)	pIC50	6.77
CCCCC1OC(=O)c2cc(NC(=O)c3cccc(CNC(C)=N)c3)ccc21 (centres undefined)	pIC50	6.61

---

- procedure-details: Half life in Sprague-Dawley rat at 10 mg/kg, iv measured after 24 hrs by LC-MS/MS analysis
- Assay type: ADME, organism-based
- condition-context: in vivo

compound	half-life
CCCCC1OC(=O)c2cc(NCc3cccc(CNC(C)=N)c3)ccc21 (stereo unspecified)	5.21 h

---

- System: SH-SY5Y
- procedure-details: Antioxidant activity in human SH-SY5Y cells assessed as reduction in OGD/R-induced LDH level at 1 uM incubated for 3 hrs followed by washout cells cultured in glucose and FBS-free medium measured after 24 hrs by colorimetric assay
- Assay type: functional, cell-based
Activity calls are given as the source filed them. The rule behind the calls is not given here.

compound	Activity
CCCCC1OC(=O)c2cc(NCc3cccc(CNC(C)=N)c3)ccc21 (centres undefined)	Active
CCCCC1OC(=O)c2cc(NC(=O)c3cccc(CNC(C)=N)c3)ccc21 (centres undefined)	Active
CC(=N)NCc1cccc(CN)c1 [1400W]	Active
CCCCC1OC(=O)c2ccccc21 (racemic) [RAC-3-N-BUTYLPHTHALIDE]	Active

---

- procedure-details: Tmax in Sprague-Dawley rat at 10 mg/kg, iv measured after 24 hrs by LC-MS/MS analysis
- Type: ADME, organism-based
- condition-context: in vivo
observation-type: Tmax (min)

compound	measured
CCCCC1OC(=O)c2cc(NCc3cccc(CNC(C)=N)c3)ccc21 (configuration not stated)	4.98
CC(=N)NCc1cccc(CN)c1 [1400W]	4.98
